List of Fold change values.
Tested on: HIV-1
Experiment: In vitro anti-HIV-1 activity in MT-2 cells
Format: cell-based
Conditions: Table 4; IC50 relative to PMPA
Provide only the numeric value, understood in x.

>  <Compound>
COC(=O)C(C)NP(=O)(COC(C)Cn1cnc2c(N)ncnc21)Oc1ccccc1 (single isomer, unassigned) [GS-6957b]

>  <Reported measurement>
33

$$$$
>  <Compound>
CCOC(=O)C(C)NP(=O)(COC(C)Cn1cnc2c(N)ncnc21)Oc1ccccc1 (single isomer, unassigned) [GS-7115]

>  <Reported measurement>
100

$$$$

Next up:
Any idea what Fold change was measured for COC(=O)C(C)NP(=O)(COC(C)Cn1cnc2c(N)ncnc21)Oc1ccccc1 (mixture of isomers) [Ala-methylester] ?
200

###

Test: Stability in human plasma
Format: in vitro ADME
Conditions: 37° C., TBS pH 7.5
Parameter threshold = 2 h. Response is yes when Human Plasma Stability (HP) t1/2 meets or exceeds it, else no.

>  <Molecule>
CCOC(=O)C(C)NP(=O)(COC(C)Cn1cnc2c(N)ncnc21)Oc1ccccc1 (single isomer, unassigned) [compound 2]

>  <Cat>
yes

$$$$
>  <Molecule>
CCOC(=O)C(C)NP(=O)(COC(C)Cn1cnc2c(N)ncnc21)Oc1ccccc1 (single isomer, unassigned) [compound 1]

>  <Cat>
yes

$$$$
>  <Molecule>
CC(C)OC(=O)OCOP(=O)(CO[C@H](C)Cn1cnc2c(N)ncnc21)OCOC(=O)OC(C)C

>  <Cat>
no

$$$$
>  <Molecule>
CCOC(=O)C(CC)NP(=O)(COC(C)Cn1cnc2c(N)ncnc21)Oc1ccccc1 (single isomer, unassigned)

>  <Cat>
yes

$$$$

Switching to the query record.
Could you verify whether the entry CC(C)OC(=O)[C@H](C)N[P@](=O)(CO[C@H](C)Cn1cnc2c(N)ncnc21)Oc1ccccc1 shows Human Plasma Stability (HP) t1/2 of no less than 2 h?
no

###

System: HIV-1
Test: In vitro anti-HIV-1 activity in MT-2 cells
Type: cell-based
Conditions: Table 4; IC50 relative to PMPA
Entries and their measured Fold change follow.
Kindly provide the numeric value in x only, without the unit symbol.

Give the reported Fold change for CCOC(=O)C(C)NP(=O)(COC(C)Cn1cnc2c(N)ncnc21)Oc1ccccc1 (mixture of isomers) [Ala-ethyl, Phenyl PMPA, Ethyl L-Alanyl Amidate] (system: HIV-1).
250

What is its Fold change for HIV-1? Entry: COC(=O)C(C)NP(=O)(COC(C)Cn1cnc2c(N)ncnc21)Oc1ccccc1 (single isomer, unassigned) [GS-6957a]
670

###

Entries and their CC50 values follow.
System: MT-2 cells
Assay: Cytotoxicity in MT-2 cells
Details: Table 4

Example cases with answers are listed next.
>  <Molecule>
CCOC(=O)C(C)NP(=O)(COC(C)Cn1cnc2c(N)ncnc21)Oc1ccccc1 (mixture of isomers) [Ala-ethyl, Phenyl PMPA, Ethyl L-Alanyl Amidate]

>  <Reported measurement>
60 µM

$$$$
>  <Molecule>
CC(C)OC(=O)[C@H](C)N[P@](=O)(CO[C@H](C)Cn1cnc2c(N)ncnc21)Oc1ccccc1 [GS-7339]

>  <Reported measurement>
> 100 µM

$$$$
>  <Molecule>
CC(C)OC(=O)[C@H](C)N[P@](=O)(CO[C@H](C)Cn1cnc2c(N)ncnc21)Oc1ccccc1 (single isomer, unassigned) [GS-7340]

>  <Reported measurement>
≥ 40 µM

$$$$

Notebook: pull reported CC50 for MT-2 cells, entry COC(=O)C(C)NP(=O)(COC(C)Cn1cnc2c(N)ncnc21)Oc1ccccc1 (mixture of isomers) [Ala-methylester]
80 µM

Query the reported CC50 for MT-2 cells; item: CCOC(=O)CNP(=O)(CO[C@H](C)Cn1cnc2c(N)ncnc21)Oc1ccccc1 (stereo partly drawn) [GS-7119]
> 100 µM

Requested read-out CC50, target or system MT-2 cells, entry CCOC(=O)[C@H](CC)NP(=O)(CO[C@H](C)Cn1cnc2c(N)ncnc21)Oc1ccccc1 (stereo partly drawn) [ABA-ethyl]
> 100 µM
